MEASURED_ON: PLK1 kinase (Homo sapiens)
Construct: purchased Carnabio (Carna Biosciences) 05-157
Sequence (P53350 whole entry): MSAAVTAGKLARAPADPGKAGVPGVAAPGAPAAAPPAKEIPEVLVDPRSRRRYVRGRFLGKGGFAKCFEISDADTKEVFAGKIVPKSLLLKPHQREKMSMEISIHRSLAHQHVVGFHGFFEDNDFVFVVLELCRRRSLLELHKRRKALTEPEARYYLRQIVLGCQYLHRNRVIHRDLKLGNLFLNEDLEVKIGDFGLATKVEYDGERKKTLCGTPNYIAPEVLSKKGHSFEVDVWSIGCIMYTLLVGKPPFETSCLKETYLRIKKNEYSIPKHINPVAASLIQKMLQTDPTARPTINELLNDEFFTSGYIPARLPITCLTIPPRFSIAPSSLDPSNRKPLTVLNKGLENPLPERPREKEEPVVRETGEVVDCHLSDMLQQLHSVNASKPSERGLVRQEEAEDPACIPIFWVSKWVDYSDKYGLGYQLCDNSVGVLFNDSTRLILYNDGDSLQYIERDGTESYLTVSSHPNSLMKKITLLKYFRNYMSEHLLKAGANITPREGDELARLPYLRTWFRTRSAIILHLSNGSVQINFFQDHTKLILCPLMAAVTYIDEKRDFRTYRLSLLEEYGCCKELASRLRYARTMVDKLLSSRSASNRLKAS
PROTOCOL_DETAILS: Inhibitory activity on PLK1 kinase
Format: biochemical
CONDITIONS_USED: maximum effect caused by the compound at the test concentration
PARAMETER_MEASURED: Imax (%)

>  <STRUCTURE_NOTATION>
Cn1nc(C(N)=O)c2ccc3cnc(Nc4cc(N5CCN(CCO)CC5)ccc4OC(F)(F)F)nc3c21

>  <MEASURED_ON>
PLK1 kinase (Homo sapiens)

>  <Imax (%)>
98.76

$$$$
>  <STRUCTURE_NOTATION>
CN1CCN(c2ccc(OC(F)(F)F)c(Nc3ncc4c(n3)-c3c(c(C(N)=O)cn3CCO)CC4)c2)CC1

>  <MEASURED_ON>
PLK1 kinase (Homo sapiens)

>  <Imax (%)>
99.81

$$$$
>  <STRUCTURE_NOTATION>
CN1CCN(c2ccc(OC(F)(F)F)c(Nc3ncc4ccc5c(C(N)=O)nn(C)c5c4n3)c2)CC1

>  <MEASURED_ON>
PLK1 kinase (Homo sapiens)

>  <Imax (%)>
99.57

$$$$
>  <STRUCTURE_NOTATION>
CN1CCN(c2ccc(OC(F)(F)F)c(Nc3ncc4ccc5c(C(N)=O)nn(C6CC6)c5c4n3)c2)CC1

>  <MEASURED_ON>
PLK1 kinase (Homo sapiens)

>  <Imax (%)>
100.24

$$$$
>  <STRUCTURE_NOTATION>
CN1CCN(c2ccc(OC(F)(F)F)c(Nc3ncc4c(n3)-c3c(c(C(=O)NS(=O)(=O)C(F)(F)F)nn3CCO)CC4)c2)CC1

>  <MEASURED_ON>
PLK1 kinase (Homo sapiens)

>  <Imax (%)>
95.96

$$$$
>  <STRUCTURE_NOTATION>
CN1CCN(c2ccc(OC(F)(F)F)c(Nc3ncc4ccc5c(C(=O)NOCCO)nn(CCF)c5c4n3)c2)CC1

>  <MEASURED_ON>
PLK1 kinase (Homo sapiens)

>  <Imax (%)>
99.97

$$$$
>  <STRUCTURE_NOTATION>
CCc1sc(C(N)=O)c2c1-c1nc(Nc3cc(N4CCN(C)CC4)ccc3OC(F)(F)F)ncc1CC2

>  <MEASURED_ON>
PLK1 kinase (Homo sapiens)

>  <Imax (%)>
100.68

$$$$

====

Here the recorded pIC50 is given for each entry.
Tested on: HCT116 cells
PROTOCOL_DETAILS: Inhibitory activity on HCT116 cell proliferation (ATPlite)
Assay type: cell-based
CONDITIONS_USED: Homo sapiens, HCT-116, 72 h
Note: pIC50 values are expressed as the negative base-10 logarithm of concentration in M.

>  <MOLECULE>
CN1CCN(c2ccc(OC(F)(F)F)c(Nc3ncc4c(n3)-c3c(c(C(=O)NNC(N)=O)nn3C)CC4)c2)CC1 [Compound 12]

>  <pIC50>
6.06

$$$$
>  <MOLECULE>
CN1CCN(c2ccc(OC(F)(F)F)c(Nc3ncc4ccc5c(C(=O)NO)nn(CCO)c5c4n3)c2)CC1 [Compound 19]

>  <pIC50>
7.02

$$$$
>  <MOLECULE>
CCn1nc(C(N)=O)c2ccc3cnc(Nc4cc(N5CCN(C)CC5)ccc4OC(F)(F)F)nc3c21 [Compound 29]

>  <pIC50>
7.11

$$$$

// returns reported pIC50 for input CN1CCN(c2ccc(OC(F)(F)F)c(Nc3ncc4ccc5c(C(N)=O)nn(C)c5c4n3)c2)CC1 [Compound 3]
7.03
